Tested on: human MDR-1 (P-gp)
Experiment: MDR/MDCK bidirectional transwell permeability assay
Type: in vitro ADME, canine
Details: dog, MDCK-MDR1, apical to basolateral
observed-property: Papp A→B

The compound identified as CCN(CC)CCNC(=O)/C=N/O.Cl [Example 1] registered its Papp A→B at < 0.51 ×10⁻⁶ cm/s

----------
Tested on: human MDR-1 (P-gp)
Assay: MDR/MDCK bidirectional transwell permeability assay
Assay type: in vitro ADME, canine
Settings: dog, MDCK-MDR1, basolateral to apical
Procedure: See, Wang, Q. et al, Evaluation of the MDR-MDCK Cell Line As a Permeability Screen For The Blood Brain Barrier, Int. J. Pharm. 288(2) 349-359. The assay is a bidirectional assay in a transwell format system, assessing the permeability of compounds across a Madin Darby canine kidney cell line transfected with human MDR-1 gene. Efflux is assessed based on ratios from the basolateral and apical sides of the chamber.
observed-property: Papp B→A

Observed Papp B→A on human MDR-1 (P-gp), entry CCN(CC)CCNC(=O)/C=N/O.Cl [Example 1] , equals < 6.7 nm/s
